Numbers sourced from patent US20180339041A1.

Target: T1, C-terminally FLAG-tagged human Gas6 recombinant protein (hGas6-F) (human, UniProt Q14393 31-678, gamma-carboxylated glutamic acid residues in the Gla domain (producer cells co-express rat VKOR and human GGCX); positions not given)
T1 construct: also called human Gas6-F; human Gas6 protein
T1 sequence: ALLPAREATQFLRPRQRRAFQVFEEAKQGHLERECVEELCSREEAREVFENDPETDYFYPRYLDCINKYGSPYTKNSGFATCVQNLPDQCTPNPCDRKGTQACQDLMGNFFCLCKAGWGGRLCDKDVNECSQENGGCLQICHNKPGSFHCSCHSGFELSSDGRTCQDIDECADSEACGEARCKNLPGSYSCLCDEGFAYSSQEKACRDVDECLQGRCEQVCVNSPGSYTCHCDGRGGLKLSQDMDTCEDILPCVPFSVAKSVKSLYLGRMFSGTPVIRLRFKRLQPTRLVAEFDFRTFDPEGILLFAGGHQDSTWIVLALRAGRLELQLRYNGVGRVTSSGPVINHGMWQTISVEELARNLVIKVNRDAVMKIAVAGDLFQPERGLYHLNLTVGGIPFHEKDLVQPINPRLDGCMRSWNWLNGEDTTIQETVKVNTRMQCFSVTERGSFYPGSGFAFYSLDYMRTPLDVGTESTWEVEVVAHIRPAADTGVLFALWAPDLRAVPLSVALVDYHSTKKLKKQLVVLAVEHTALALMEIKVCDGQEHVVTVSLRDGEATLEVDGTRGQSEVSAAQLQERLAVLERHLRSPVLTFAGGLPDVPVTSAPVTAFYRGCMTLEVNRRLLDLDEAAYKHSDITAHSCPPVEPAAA
Assay: SPR Biacore T100, captured antibody, Gas6 analyte, first test
Each record here notes measured Kd.

BINDER | Kd
hzKM5321 LV4HV7 antibody (antibody, V domains shown, Humanized; variant human IgG4 constant region (EU S228P, L235E, R409K), human kappa; also called B-17; LV4HV7) VH: QIHLVQSGPELKKPGASVKISCKASGYTFTNYGMNWVKQAPGQGLKWMGWINTNTGEPTYTEEFKGRFVFSLDTSVTTAYLQISTLKAEDTATYFCARDEGWFVYWGQGTLITVSS VL: ETTLTQSPSSLSVSTGDRVTITCITSTDIDDDMNWYQQKPGKAPKLLISEGNTLRPGVPSRFSGSGSGTDFTFTISSTQPEDFATYYCLQTDSVPLTFGQGTKVEIK | < 8.59 nM
hzKM5320 LV5HV8 antibody (antibody, V domains shown, Humanized; variant human IgG4 constant region (EU S228P, L235E, R409K), human kappa; also called A-16) VH: QIQLVQSGPELKKPGASVKISCKASGYTFTNYGMNWVKQAPGQGLKWMGWINTETGEPTYSDDFKGRFVFSLDTSVTTAYLQISSLKAEDTATYFCAREDGYYGTLDYWGQGTTVTVSS VL: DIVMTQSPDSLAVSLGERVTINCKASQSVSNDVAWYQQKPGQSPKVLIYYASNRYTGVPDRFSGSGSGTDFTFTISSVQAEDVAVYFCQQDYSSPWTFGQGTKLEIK | < 2.11 nM
hzKM5320 LV6HV0 antibody (antibody, V domains shown, Humanized; variant human IgG4 constant region (EU S228P, L235E, R409K), human kappa; also called A-09) VH: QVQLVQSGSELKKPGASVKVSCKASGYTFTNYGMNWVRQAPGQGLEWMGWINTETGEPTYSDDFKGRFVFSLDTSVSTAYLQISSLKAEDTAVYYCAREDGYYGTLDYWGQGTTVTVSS VL: DIVMTQSPDSLAVSAGERVTINCKASQSVSNDVAWYQQKPGQSPKVLIYYASNRYTGVPDRFSGSGSGTDFTFTISSVQAEDVAVYFCQQDYSSPWTFGQGTKLEIK | < 3.22 nM
hzKM5320 LV5HV1 antibody (antibody, V domains shown, Humanized; variant human IgG4 constant region (EU S228P, L235E, R409K), human kappa; also called A-19) VH: QVQLVQSGSELKKPGASVKVSCKASGYTFTNYGMNWVRQAPGQGLKWMGWINTETGEPTYSDDFKGRFVFSLDTSVSTAYLQISSLKAEDTAVYYCAREDGYYGTLDYWGQGTTVTVSS VL: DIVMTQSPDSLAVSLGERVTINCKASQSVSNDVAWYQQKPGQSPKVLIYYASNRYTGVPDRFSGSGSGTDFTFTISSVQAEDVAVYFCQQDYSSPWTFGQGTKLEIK | < 2.48 nM
hzKM5321 LV7aHV0 antibody (antibody, V domains shown, Humanized; variant human IgG4 constant region (EU S228P, L235E, R409K), human kappa; also called B-09; LV7aHV0) VH: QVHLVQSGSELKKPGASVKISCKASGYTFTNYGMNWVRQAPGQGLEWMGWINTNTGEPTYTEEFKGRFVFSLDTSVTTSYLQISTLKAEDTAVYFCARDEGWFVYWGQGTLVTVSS VL: ETTLTQSPSSLSVSTGDRVTITCITSTDIDDDMNWYQQKPGKPPKLLISEGNTLRPGVPSRFSSSGSGTDFTFTISSTQPEDFADYYCLQTDSVPLTFGQGTKVEIK | < 1.41 nM
